system: UniProtKB P51451
Sequence (P51451 whole entry): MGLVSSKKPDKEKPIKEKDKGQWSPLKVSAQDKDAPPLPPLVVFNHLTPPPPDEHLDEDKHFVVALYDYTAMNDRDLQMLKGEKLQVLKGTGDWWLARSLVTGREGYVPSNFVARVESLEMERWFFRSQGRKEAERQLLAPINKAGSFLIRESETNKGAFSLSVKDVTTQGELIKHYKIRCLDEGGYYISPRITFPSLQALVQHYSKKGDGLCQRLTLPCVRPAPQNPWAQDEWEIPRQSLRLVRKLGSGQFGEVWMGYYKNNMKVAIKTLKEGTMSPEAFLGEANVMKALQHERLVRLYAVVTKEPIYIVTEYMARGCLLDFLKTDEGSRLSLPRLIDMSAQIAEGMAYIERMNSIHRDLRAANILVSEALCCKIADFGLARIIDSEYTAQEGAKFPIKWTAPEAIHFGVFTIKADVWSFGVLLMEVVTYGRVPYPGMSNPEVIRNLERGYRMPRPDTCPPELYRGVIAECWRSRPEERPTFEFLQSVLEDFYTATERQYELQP
measured parameter: pIC50
Answers are plain numbers, as −log10 of the molar value.

-- ask Reported pIC50 for Cc1cccc(C)c1-c1cc(C)c2nc(Nc3ccc(OCCN4CCCC4)cc3)nnc2c1 : what is it?
-- reply 5.88

----------
system: Tyrosine-protein kinase ABL1 (Homo sapiens, UniProt P00519, T315I)
protocol summary: Inhibition of Abl T315I mutant
measured parameter: IC50 (µM)
Answers are plain numbers, in µM.

-- ask For Cc1cccc(C)c1-c1cc(C)c2nc(Nc3ccc(OCCN4CCCC4)cc3)nnc2c1 , what is its reported IC50?
-- reply 5.99

----------
system: Tyrosine-protein kinase CSK (Homo sapiens)
Sequence (P41240 whole entry): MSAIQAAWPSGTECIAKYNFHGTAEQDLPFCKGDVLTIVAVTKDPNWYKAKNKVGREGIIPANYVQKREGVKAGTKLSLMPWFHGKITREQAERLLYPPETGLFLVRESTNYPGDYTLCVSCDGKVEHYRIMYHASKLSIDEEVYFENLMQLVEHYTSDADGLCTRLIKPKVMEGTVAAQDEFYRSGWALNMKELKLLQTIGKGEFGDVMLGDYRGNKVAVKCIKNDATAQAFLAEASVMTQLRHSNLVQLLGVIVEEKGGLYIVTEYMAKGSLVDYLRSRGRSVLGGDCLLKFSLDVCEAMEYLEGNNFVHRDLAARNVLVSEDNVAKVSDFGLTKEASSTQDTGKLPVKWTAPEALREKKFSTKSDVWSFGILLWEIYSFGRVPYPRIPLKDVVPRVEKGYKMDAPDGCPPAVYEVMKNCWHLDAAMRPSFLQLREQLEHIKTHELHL
measured parameter: pIC50
Numbers only, as −log10 of the molar value.

-- ask Looking for the measured pIC50 of Cc1cccc(C)c1-c1cc(C)c2nc(Nc3ccc(OCCN4CCCC4)cc3)nnc2c1 , can you help?
-- reply 6.18

----------
The following compounds each carry a recorded log10 IC50 for Proto-oncogene tyrosine-protein kinase Src (Homo sapiens, UniProt P12931).
Scale: log10; quantity: IC50; unit before log: µM

Consider the worked cases shown below.
- compound: "CCOC1CN(c2ccc(Nc3nnc4cc(-c5c(C)cccc5C)cc(C)c4n3)cc2)CCO1 (stereo not drawn)"
  log10 IC50: -1.49
- compound: "Cc1cc(-c2c(Cl)cccc2Cl)cc2nnc(N)nc12"
  log10 IC50: 0.56
- compound: "Cc1cccc(C)c1-c1cc(C)c2nc(Nc3ccccc3)nnc2c1"
  log10 IC50: -0.39
- compound: "Cc1cccc(C)c1-c1ccc2nc(N)nnc2c1"
  log10 IC50: 0.34

Below are some compounds; for each one, tell me its log10 IC50.
1. CCOC1CN(C)CCN1c1cccc(Nc2nnc3cc(-c4c(C)cccc4C)cc(C)c3n2)c1 (stereo not drawn)
2. Cc1cccc(C)c1-c1cc(C)c2nc(N)nnc2c1

-- reply
1. -1.39
2. 0.87

----------
system: UniProtKB P06241
Sequence (P06241 whole entry): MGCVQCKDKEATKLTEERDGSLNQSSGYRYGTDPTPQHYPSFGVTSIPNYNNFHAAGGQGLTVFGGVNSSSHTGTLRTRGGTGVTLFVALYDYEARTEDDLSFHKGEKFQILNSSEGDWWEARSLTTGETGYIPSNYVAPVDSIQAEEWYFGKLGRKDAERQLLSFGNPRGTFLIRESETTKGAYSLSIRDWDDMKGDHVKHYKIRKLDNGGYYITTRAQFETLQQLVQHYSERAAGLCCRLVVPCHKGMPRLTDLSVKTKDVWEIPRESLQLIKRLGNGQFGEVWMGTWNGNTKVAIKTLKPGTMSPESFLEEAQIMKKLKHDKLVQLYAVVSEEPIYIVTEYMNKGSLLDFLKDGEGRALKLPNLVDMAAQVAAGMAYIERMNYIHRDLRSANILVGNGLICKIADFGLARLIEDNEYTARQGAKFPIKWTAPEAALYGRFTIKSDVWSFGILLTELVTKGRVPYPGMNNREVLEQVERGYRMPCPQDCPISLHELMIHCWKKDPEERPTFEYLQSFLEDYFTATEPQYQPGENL
measured parameter: pIC50
Numbers only, as −log10 of the molar value.

-- ask Fill in: pIC50 of Cc1cccc(C)c1-c1cc(C)c2nc(Nc3ccc(OCCN4CCCC4)cc3)nnc2c1 is ___
-- reply 7.64

----------
system: Ribosomal protein S6 kinase beta-1 (Homo sapiens)
Sequence (P23443 whole entry): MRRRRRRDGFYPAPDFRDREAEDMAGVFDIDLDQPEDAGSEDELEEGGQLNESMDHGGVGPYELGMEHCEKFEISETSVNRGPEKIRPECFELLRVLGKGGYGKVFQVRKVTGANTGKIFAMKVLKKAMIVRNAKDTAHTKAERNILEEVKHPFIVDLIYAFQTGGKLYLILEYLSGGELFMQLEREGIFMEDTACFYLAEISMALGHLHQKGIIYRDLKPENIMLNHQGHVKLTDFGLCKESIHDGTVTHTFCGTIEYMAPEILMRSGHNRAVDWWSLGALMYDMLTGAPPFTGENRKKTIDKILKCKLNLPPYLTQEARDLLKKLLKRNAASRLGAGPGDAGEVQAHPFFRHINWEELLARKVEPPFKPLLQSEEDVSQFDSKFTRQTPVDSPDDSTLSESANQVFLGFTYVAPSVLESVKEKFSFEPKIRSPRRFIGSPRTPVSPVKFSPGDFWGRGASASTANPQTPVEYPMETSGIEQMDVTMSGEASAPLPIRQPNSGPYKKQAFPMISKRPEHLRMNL
measured parameter: IC50 (nM)
One number for each entry, in nM.

-- ask For Ribosomal protein S6 kinase beta-1 (Homo sapiens), provide IC50 of Cc1cccc(C)c1-c1cc(C)c2nc(Nc3ccc(OCCN4CCCC4)cc3)nnc2c1 please.
-- reply 2710

----------
system: UniProtKB P12931
pIC50: −log10 of the molar value.
Please respond with reported pIC50 for every item in the list.

- structure: "Cc1cccc(C)c1-c1cc(C)c2nc(Nc3cccc4cccnc34)nnc2c1"
  pIC50: "< 4.30"
- structure: "Nc1nnc2cc(-c3ccccc3)ccc2n1"
  pIC50: "< 4.30"

Look at each compound and report its pIC50.
1. Cc1cc(C)c(-c2cc(C)c3nc(Nc4ccccc4)nnc3c2)c(C)c1
2. Cc1ccc(C)c(Nc2nnc3cc(-c4c(C)cccc4C)cc(C)c3n2)c1
3. Cc1cccc(C)c1-c1cc(C)c2nc(Nc3ccccn3)nnc2c1
4. CCCCc1ccc(Nc2nnc3cc(-c4c(C)cccc4C)cc(C)c3n2)cc1
5. COc1ccccc1Nc1nnc2cc(-c3c(C)cccc3C)cc(C)c2n1

-- reply
1. < 4.30
2. < 4.30
3. < 4.30
4. < 4.30
5. < 4.30

# credit: ChEMBL document CHEMBL1139689
